# target_or_test_system: Aurora kinase B (Homo sapiens, UniProt Q96GD4)
# Sequence (Q96GD4 whole entry): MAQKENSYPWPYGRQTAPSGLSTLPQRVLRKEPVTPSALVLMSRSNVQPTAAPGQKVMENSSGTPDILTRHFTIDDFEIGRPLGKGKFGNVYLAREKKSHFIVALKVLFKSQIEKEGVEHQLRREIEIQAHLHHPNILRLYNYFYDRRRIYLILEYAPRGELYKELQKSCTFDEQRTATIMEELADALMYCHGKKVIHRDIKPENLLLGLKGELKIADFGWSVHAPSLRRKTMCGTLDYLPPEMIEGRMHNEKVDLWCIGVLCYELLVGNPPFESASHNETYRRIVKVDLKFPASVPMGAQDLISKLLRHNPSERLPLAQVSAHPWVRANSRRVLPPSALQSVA
# measurement_notes: Inhibition of Aurora kinase B (unknown origin) incubated for 30 mins by Kinase Glo luminescent assay
reported_property: IC50 (nM)

substance_smiles: Cn1cc(-c2cnc(N)c(Oc3ccc(C(=O)Nc4ccc(Cl)cc4)cc3)n2)cn1
numeric_readout: 175

P: Cc1noc(C)c1-c1cnc(N)c(Oc2ccc(C(=O)NC3CCCCC3)cc2)n1
Q: Cc1noc(C)c1-c1cnc(N)c(Oc2ccc(C(=O)Nc3cccc(Cl)c3)cc2)n1
R: Cc1noc(C)c1-c1cnc(N)c(Oc2ccc(C(=O)Nc3ccccc3)cc2)n1
Please give the order of these compounds when sorted by IC50, largest value leading. Enter labels, ranked according to the request.
R, P, Q
(R: 538 nM, P: 320 nM, Q: 152 nM)

I: Cn1cc(-c2cnc(N)c(Oc3ccc(C(=O)Nc4cccc(Cl)c4)cc3)n2)cn1
II: Cn1cc(-c2cnc(N)c(Oc3ccc(C(=O)Nc4ccccc4)cc3)n2)cn1
Min IC50? I | II Answer with the label corresponding to your selection.
II

I: Cc1noc(C)c1-c1cnc(N)c(Oc2ccc(C(=O)N3CCOCC3)cc2)n1
II: Cc1noc(C)c1-c1cnc(N)c(Oc2ccc(C(=O)N3CCN(C)CC3)cc2)n1
Min IC50? I | II Answer with the label corresponding to your selection.
II
(II: 189 nM, I: 360 nM)

###

# target_or_test_system: Aurora kinase A (Homo sapiens)
# Sequence (O14965 whole entry): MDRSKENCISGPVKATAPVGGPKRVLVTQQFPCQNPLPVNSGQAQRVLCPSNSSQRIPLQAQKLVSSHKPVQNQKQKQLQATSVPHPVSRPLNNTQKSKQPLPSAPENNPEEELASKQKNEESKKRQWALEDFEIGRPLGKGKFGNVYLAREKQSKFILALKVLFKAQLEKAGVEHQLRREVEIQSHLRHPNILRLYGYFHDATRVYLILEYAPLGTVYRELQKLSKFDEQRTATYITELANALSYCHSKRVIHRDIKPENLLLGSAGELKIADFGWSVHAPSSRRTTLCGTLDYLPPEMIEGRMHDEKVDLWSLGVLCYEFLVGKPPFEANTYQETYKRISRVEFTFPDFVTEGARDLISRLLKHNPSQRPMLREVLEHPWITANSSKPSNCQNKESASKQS
pIC50: −log10 of the molar value.
reported_property: pIC50

Would you please look over these solved cases?
substance_smiles: Cc1noc(C)c1-c1cnc(N)c(Oc2ccc(C(=O)Nc3ccccc3)cc2)n1
pIC50: 6.66

substance_smiles: Cc1noc(C)c1-c1cnc(N)c(Oc2ccc(C(=O)Nc3ccc(Cl)cc3)cc2)n1
pIC50: 6.34

I: Cc1noc(C)c1-c1cnc(N)c(Oc2ccc(C(=O)Nc3cccc(Cl)c3)cc2)n1
II: Cc1noc(C)c1-c1cnc(N)c(Oc2ccc(C(=O)N3CCOCC3)cc2)n1
Min pIC50? I | II Answer with the label corresponding to your selection.
II

###

# target_or_test_system: Aurora kinase B (Homo sapiens)
# measurement_notes: Inhibition of Aurora B in human B-NHL cells assessed as inhibition of histone H3 phosphorylation on Ser10 by immunoblotting analysis
# Assay type: cell-based
reported_property: IC50 (nM)
Answer format: numeric, nM implied, no suffix.

For record `O=C(Nc1c[nH]nc1-c1nc2ccc(CN3CCOCC3)cc2[nH]1)NC1CC1` the listed IC50 is 30

###

# Test system: U-87 MG
# measurement_notes: Antiproliferative activity against human U87 cells assessed as cell growth inhibition after 72 hrs by MTT assay
# Assay type: functional, cell-based, U-87MG ATCC
pIC50: −log10 of the molar value.
reported_property: pIC50

Would you please look over these solved cases?
compound: Cc1noc(C)c1-c1cnc(N)c(Oc2ccc(C(=O)N3CCN(C)CC3)cc2)n1
numeric_readout: 4.67

compound: Cn1cc(-c2cnc(N)c(Oc3ccc(C(=O)Nc4ccccc4)cc3)n2)cn1
numeric_readout: 4.75

compound: Cn1cc(-c2cnc(N)c(Oc3ccc(C(=O)Nc4cc(Cl)ccn4)cc3)n2)cn1
numeric_readout: 4.32

compound: CCCNC(=O)c1ccc(Oc2nc(-c3c(C)noc3C)cnc2N)cc1
numeric_readout: 4.32

compound: Cc1noc(C)c1-c1cnc(N)c(Oc2ccc(C(=O)NC3CC3)cc2)n1
numeric_readout: 4.36

a: Cn1cc(-c2cnc(N)c(Oc3ccc(C(=O)Nc4ncccc4Cl)cc3)n2)cn1
b: Cn1cc(-c2cnc(N)c(Oc3ccc(C(=O)Nc4ccc(Cl)cn4)cc3)n2)cn1
c: Cc1noc(C)c1-c1cnc(N)c(Oc2ccc(C(=O)Nc3cccc(Cl)n3)cc2)n1
d: Cc1noc(C)c1-c1cnc(N)c(Oc2ccc(C(=O)Nc3cccc(Cl)c3)cc2)n1
Ascending sort, pIC50. Enter labels, ranked according to the request.
c, a, b, d
(c: 4.19, a: 4.42, b: 4.65, d: 4.94)

a: Cc1noc(C)c1-c1cnc(N)c(Oc2ccc(C(=O)NC3CCCCC3)cc2)n1
b: Cn1cc(-c2cnc(N)c(Oc3ccc(C(=O)Nc4cccc(Cl)c4)cc3)n2)cn1
Recorded pIC50 values differ for a and b ; which one is higher? Answer with the label corresponding to your selection.
b

A: Cn1cc(-c2cnc(N)c(Oc3ccc(C(=O)Nc4cccc(Cl)n4)cc3)n2)cn1
B: Cc1noc(C)c1-c1cnc(N)c(Oc2ccc(C(=O)Nc3ccccc3)cc2)n1
Min pIC50? A | B Answer with the label corresponding to your selection.
A
(A: 4.26, B: 4.58)

P: Cc1noc(C)c1-c1cnc(N)c(Oc2ccc(C(=O)Nc3ccc(Cl)cn3)cc2)n1
Q: Cc1cc(Nc2cc(N3CCN(C)CC3)nc(Sc3ccc(NC(=O)C4CC4)cc3)n2)n[nH]1 [TOZASERTIB]
Recorded pIC50 values differ for P and Q ; which one is higher? Answer with the label corresponding to your selection.
Q
(Q: 4.84, P: 4.34)

P: Cc1noc(C)c1-c1cnc(N)c(Oc2ccc(C(=O)NC3CCCC3)cc2)n1
Q: Cn1cc(-c2cnc(N)c(Oc3ccc(C(=O)Nc4ccc(Cl)cc4)cc3)n2)cn1
Recorded pIC50 values differ for P and Q ; which one is higher? Answer with the label corresponding to your selection.
Q
(Q: 4.45, P: 4.24)

###

# System: U-87 MG
# measurement_notes: Antiproliferative activity against human U87 cells assessed as cell growth inhibition after 72 hrs by MTT assay
# Type: functional, cell-based, U-87MG ATCC
reported_property: IC50 (µM)

Would you please look over these solved cases?
substance_smiles: Cc1noc(C)c1-c1cnc(N)c(Oc2ccc(C(=O)Nc3ncccc3Cl)cc2)n1
target_or_test_system: U-87 MG
units_of_measure: µM
IC50: 45.6
//
substance_smiles: Cc1noc(C)c1-c1cnc(N)c(Oc2ccc(C(=O)N3CCOCC3)cc2)n1
target_or_test_system: U-87 MG
units_of_measure: µM
IC50: 27.2
//
substance_smiles: Cc1noc(C)c1-c1cnc(N)c(Oc2ccc(C(=O)Nc3cc(Cl)ccn3)cc2)n1
target_or_test_system: U-87 MG
units_of_measure: µM
IC50: 70.8

P: Cc1noc(C)c1-c1cnc(N)c(Oc2ccc(C(=O)Nc3ccccc3Cl)cc2)n1
Q: Cc1noc(C)c1-c1cnc(N)c(Oc2ccc(C(=O)Nc3ccc(Cl)cc3)cc2)n1
Recorded IC50 values differ for P and Q ; which one is higher? Answer with the label corresponding to your selection.
P

###

Listed below: pIC50 values for each entry.
# Test system: U-87 MG
# measurement_notes: Antiproliferative activity against human U87 cells assessed as cell growth inhibition after 72 hrs by MTT assay
# Type: functional, cell-based, U-87MG ATCC
pIC50: −log10 of the molar value.

substance_smiles: Cc1noc(C)c1-c1cnc(N)c(NCc2ccc(C(=O)Nc3ccc(Cl)cc3)cc2)n1
target_or_test_system: U-87 MG
result: < 4.00
--
substance_smiles: Cn1cc(-c2cnc(N)c(Oc3ccc(C(=O)Nc4ccccc4Cl)cc3)n2)cn1
target_or_test_system: U-87 MG
result: 4.35

Attention now turns to another entry.
For record `Cn1cc(-c2cnc(N)c(NCc3ccc(C(=O)Nc4ccc(Cl)cc4)cc3)n2)cn1` the listed pIC50 is < 4.00
